Assay: Viability qHTS for spleen associated tyrosine kinase inhibitor (SYKi) drug resistant MV4-11 cells (AID 1963824); also: nearly all actives have a fitted effect of over 35% in size
Details: SYKi-resistant MV4-11 viability, CellTiter-Glo, 72 h; series mostly up to 45 µM
Records with an inconclusive call do not appear. Activity calls are given as the source filed them. Calls follow the shape of the dose curve; as a rule, active = well fitted cell-killing curve with a large enough effect; inconclusive = small, poorly fitted or top-dose-only effect, or effect the other way; inactive = no such curve, though single readings can be large or run the other way.
Permitted responses: True (active), False (inactive)

Some solved entries appear below for comparison.
Compound: CCCC(C)(COC(N)=O)COC(=O)NC(C)C (stereo not drawn)
Qualitative label: False
//
Compound: CN1C(=O)[C@@H](Cc2c[nH]c3ccccc23)N=C(c2ccccc2F)c2ccccc21
Qualitative label: True
//
Compound: C[C@@H](C1CC[C@@]2(O)C3=CC(=O)[C@@H]4C[C@@H](O)[C@@H](O)C[C@]4(C)[C@H]3CC[C@]12C)[C@H](O)CCC(C)(C)O (stereo partly drawn)
Qualitative label: False
//
Compound: CC[n+]1c(-c2ccccc2)c2cc(N)ccc2c2ccc(N)cc21
Qualitative label: True
//
Compound: COc1ccc(CCNCc2ccc(OC)c3ccccc23)cc1
Qualitative label: True

Request: GET /call?item= CC(=O)OC[C@]12C[C@H](OC(=O)CC(C)C)C(C)=C[C@H]1O[C@@H]1[C@H](O)[C@@H](O)[C@@]2(C)[C@]12CO2 returns the recorded outcome of this test.
Response: True

Request: GET /call?item= O=C(O)C(Cl)Cl returns the recorded outcome of this test.
Response: False

---

Assay: Cellular viability qHTS for adrenocortical cancer (ACC) cell line SW-13 (AID 1963989); also: potency is read from the fitted curve at half-maximal effect; nearly all actives have a fitted effect of over 65% in size
Conditions: SW-13 ACC cells viability, CellTiter-Glo, 48 h
Results filed as inconclusive are left out. Calls of active or inactive are those of the source. Calls come from the whole dose curve; as a rule, active = well fitted cell-killing curve with a large enough effect; inconclusive = small, poorly fitted or top-dose-only effect; inactive = flat fitted curve, though single readings scatter.
Value type: Potency

// known answers, use as guide
Molecule: CC[C@@]1(O)C(=O)OCc2c1cc1n(c2=O)Cc2cc3ccccc3nc2-1
Potency: 0.126 µM (active)
--
Molecule: C[C@@H]1CC[C@@]2(OC1)O[C@H]1C[C@H]3[C@@H]4CC=C5C[C@@H](O[C@@H]6O[C@H](CO)[C@@H](O[C@@H]7O[C@@H](C)[C@H](O)[C@@H](O)[C@H]7O)[C@H](O)[C@H]6O[C@@H]6O[C@@H](C)[C@H](O)[C@@H](O)[C@H]6O)CC[C@]5(C)[C@H]4CC[C@]3(C)[C@H]1[C@@H]2C
Potency: 3.55 µM (active)
--
Molecule: C[C@H]1CCC/C=C/C2C[C@H](O)C[C@H]2[C@H](O)/C=C/C(=O)O1 (stereo not given in full)
Potency: 0.282 µM (active)
--
Molecule: CC(=O)OC[C@H]1O[C@@H]([S-])[C@H](OC(C)=O)[C@@H](OC(C)=O)[C@@H]1OC(C)=O.CC[PH+](CC)CC.[Au]
Potency: 0.708 µM (active)
--
Molecule: COc1ccc2c3c1O[C@H]1[C@@H](O)C=C[C@H]4[C@@H](C2)N(C)CC[C@@]341
Potency: 14.1 µM (active)

Respectfully, I request Potency for each entry included below.
1. CN(C)c1cc2c(cc1Sc1nc3c(N)nccc3n1CCNCC(C)(C)C)OCO2
2. CCCCCCCCCCCCCCCC[N+](C)(C)C

Response:
1. 1.41 µM (active)
2. 7.31 µM (active)

Respectfully, I request Potency for each entry included below.
1. CC1(C)C(=O)N(c2ccc(C#N)c(C(F)(F)F)c2)C(=S)N1Cc1ccc(-c2cn[nH]n2)cc1
2. CCCCCCCCCC(CC)c1ccc(S(=O)(=O)O)cc1 (stereo not given)
3. C/C=C(/C)C(=O)O[C@H]1C(C)=C2[C@H]([C@@H]1OC(=O)CCCCCCC)[C@@](C)(OC(C)=O)C[C@H](OC(=O)CCC)[C@@]1(O)[C@H]2OC(=O)[C@@]1(C)O
4. CO/C1=C/C(C)=C\[C@@H](C)[C@@H](O)[C@@H](C)C/C(C)=C\C=C/[C@H](OC)[C@@H]([C@@H](C)[C@@H](O)[C@H](C)[C@@]2(O)C[C@@H](O)[C@H](C)[C@@H](C(C)C)O2)OC1=O
5. Cn1c(CCCCCCC(=O)NO)nc2cc(N(CCCl)CCCl)ccc21
6. CC[n+]1c(-c2ccccc2)c2cc(N)ccc2c2ccc(N)cc21
7. COc1nn(CSP(=S)(OC)OC)c(=O)s1

Response:
25.1 µM (active)
31.6 µM (active)
0.0447 µM (active)
0.245 µM (active)
15.8 µM (active)
5.17 µM (active)
31.6 µM (active)

Request: Need Potency, item N#Cc1nn(-c2c(Cl)cc(C(F)(F)F)cc2Cl)c(N)c1S(=O)C(F)(F)F (stereo not given)
Response: 5.8 µM (active)
